- TESTED_SYSTEM: Clk1 (Homo sapiens)
- ASSAY_NOTES: Z'-LYTE kinase inhibition assay, Clk1
- Type: biochemical
- MEASUREMENT_SETUP: read-out: Clk1 % Inh. At 1 µM
Quick reference: inhibition at 1 µM of the listed items.
Reply numerically in %, unit not repeated.

Exam item: Any idea what its inhibition at 1 µM is? The molecule is O=C(NCc1ccc(F)cc1F)c1cc2cc(O)ccc2s1
Marked response: 50

Further cases:
Exam item: Any idea what its inhibition at 1 µM is? The molecule is O=C(NCc1cccc(F)c1F)c1cc2cc(O)ccc2s1
Marked response: 61

Exam item: Any idea what its inhibition at 1 µM is? The molecule is O=C(NCc1ccccc1F)c1cc2cc(O)ccc2s1
Marked response: 63

Exam item: Any idea what its inhibition at 1 µM is? The molecule is COc1ccccc1CNC(=O)c1cc2cc(O)ccc2s1
Marked response: 60

----------
- TESTED_SYSTEM: Clk1 (Homo sapiens)
- ASSAY_NOTES: Z'-LYTE kinase inhibition assay, Clk1
- Format: biochemical
- MEASUREMENT_SETUP: ATP conc. equivalent to Km
VALUE_KIND: IC50 (nM)
Reply numerically in nM, unit not repeated.

Exam item: Any idea what its IC50 is? The molecule is O=C(NCc1ccco1)c1cc2cc(O)ccc2s1
Marked response: 585

Further cases:
Exam item: Any idea what its IC50 is? The molecule is Cc1cccc(CNC(=O)c2cc3cc(O)ccc3s2)c1
Marked response: 787

Exam item: Any idea what its IC50 is? The molecule is Cc1ccccc1CNC(=O)c1cc2cc(O)ccc2s1
Marked response: 594

Exam item: Any idea what its IC50 is? The molecule is O=C(NCc1ccccc1Cl)c1cc2cc(O)ccc2s1
Marked response: 769

----------
- TESTED_SYSTEM: Clk1 (Homo sapiens, UniProt P49759)
- Sequence (P49759 whole entry): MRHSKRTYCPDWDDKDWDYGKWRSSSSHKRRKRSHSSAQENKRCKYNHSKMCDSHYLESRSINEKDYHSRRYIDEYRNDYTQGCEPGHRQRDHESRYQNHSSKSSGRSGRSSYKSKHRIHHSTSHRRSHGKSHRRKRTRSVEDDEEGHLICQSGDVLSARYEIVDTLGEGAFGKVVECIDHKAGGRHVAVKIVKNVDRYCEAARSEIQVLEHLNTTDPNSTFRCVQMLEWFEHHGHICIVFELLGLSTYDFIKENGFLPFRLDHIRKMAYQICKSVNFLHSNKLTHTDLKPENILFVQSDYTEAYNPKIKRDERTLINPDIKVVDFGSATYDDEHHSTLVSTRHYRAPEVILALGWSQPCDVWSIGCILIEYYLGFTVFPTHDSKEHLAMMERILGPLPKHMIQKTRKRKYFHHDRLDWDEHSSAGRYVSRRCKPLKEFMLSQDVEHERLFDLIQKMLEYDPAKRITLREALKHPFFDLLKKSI
- ASSAY_NOTES: Z'-LYTE kinase inhibition assay, Clk1
- Type: biochemical
- MEASUREMENT_SETUP: read-out: Clk1 % Inh. At 1 µM
VALUE_KIND: inhibition at 1 µM
Quick note: number first, unit second.

Exam item: Any idea what its inhibition at 1 µM is? The compound is O=C(NCCc1c[nH]c2ccccc12)c1cc2cc(O)ccc2s1 [Compound 30]
Marked response: 74%

Further cases:
Exam item: Any idea what its inhibition at 1 µM is? The compound is Cc1ccccc1CNC(=O)c1cc2cc(O)ccc2s1 [Compound 8]
Marked response: 63%

Exam item: Any idea what its inhibition at 1 µM is? The compound is O=C(NCc1cccc(Cl)c1)c1cc2cc(O)ccc2s1 [Compound 3]
Marked response: 79%

----------
- Tested on: A549 cells
- ASSAY_NOTES: CCK-8 cell viability, A549
- Assay type: cell-based
- MEASUREMENT_SETUP: Homo sapiens, 72 h, CCK-8, mean ± S.E.M. (n = 3), read-out: A549 % Inh. at μM
- Method: All cells were purchased from Bioresource Collection and Research Center (Hsinchu, Taiwan) and cultured in corresponding media supplemented with 10% fetal bovine serum, 1 × Antibiotic-Antimycotic at 37 °C in a humidified incubator with 5% CO2. […] T24 cells were cultured in McCoy’s 5a media. […] Cells were incubated with the Cell Counting Kit-8 (CCK-8) reagent (TargetMol, Boston, MA, USA) at 37 °C for 2 h. The cell viability was determined by spectrophotometer at 450 nm.
VALUE_KIND: inhibition at 20 µM (%)
Reply numerically in %, unit not repeated.

Please review the entries below; each comes with its answer.
Exam item: For A549 cells, provide inhibition at 20 µM of O=C(NCc1cccc(Cl)c1)c1cc2cc(O)ccc2s1 please.
Marked response: 54.7

Exam item: For A549 cells, provide inhibition at 20 µM of COc1ccccc1CNC(=O)c1cc2cc(O)ccc2s1 please.
Marked response: 34.7

# evaluate next
Exam item: For A549 cells, provide inhibition at 20 µM of O=C(NCc1cc(F)cc(F)c1)c1cc2cc(O)ccc2s1 please.
Marked response: 38.8
